System: Escherichia coli TOP10
Assay: shrunken log2 fold change of peptide-encoding DNA abundance (4.5 h post-induction vs induction); higher = less antimicrobial activity (less host growth inhibition)
Settings: time post-induction: 4.5 h; library: site-saturation at positions 5, 18, 19, 20
Measured metric: shrunken log2 fold change

These solved cases illustrate the format of a correct answer.
[
  {
    "Macromolecule sequence": "RRIRARPPRLPRPRPRPFTAPRP",
    "Measured metric": "shrunken log2 fold change",
    "Result": -0.111
  },
  {
    "Macromolecule sequence": "RRIRNRPPRLPRPRPRPALDPRP",
    "Measured metric": "shrunken log2 fold change",
    "Result": 0.113
  },
  {
    "Macromolecule sequence": "RRIRLRPPRLPRPRPRPQPSPRP",
    "Measured metric": "shrunken log2 fold change",
    "Result": 0.169
  }
]

Query: What value of shrunken log2 fold change on Escherichia coli TOP10 does `RRIRNRPPRLPRPRPRPKNQPRP` have?
Reply: -0.54

Query: Record `RRIRQRPPRLPRPRPRPYGYPRP` : what is its shrunken log2 fold change with Escherichia coli TOP10?
Reply: -0.354

Query: Requested read-out shrunken log2 fold change, target or system Escherichia coli TOP10, entry `RRIRSRPPRLPRPRPRPFVSPRP`
Reply: -0.481

Query: Query the reported shrunken log2 fold change for Escherichia coli TOP10; item: `RRIRHRPPRLPRPRPRPKIMPRP`
Reply: -0.811

Query: Field: shrunken log2 fold change (Escherichia coli TOP10). Entry: `RRIRMRPPRLPRPRPRPYMCPRP`
Reply: 0.00451

Query: Request body: readout shrunken log2 fold change, system Escherichia coli TOP10, query `RRIRNRPPRLPRPRPRPFQHPRP` . Return the value.
Reply: -0.00968

Query: Item: `RRIRLRPPRLPRPRPRPMPFPRP` Test system: Escherichia coli TOP10 Read-out: shrunken log2 fold change Value: ?
Reply: -0.0289

Query: Find the measured shrunken log2 fold change: item `RRIRSRPPRLPRPRPRPTDIPRP` , target or system Escherichia coli TOP10.
Reply: -0.489

Query: Identify the measured shrunken log2 fold change of `RRIRDRPPRLPRPRPRPLMPPRP` for Escherichia coli TOP10.
Reply: 0.097

Query: Which measured shrunken log2 fold change belongs to `RRIRIRPPRLPRPRPRPVQVPRP` , tested on Escherichia coli TOP10?;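 also: peptides expressed intracellularly from a pBAD plasmid library in pooled LB shake-flask culture, induced with 0.3% L-arabinose, DNA abundance read by NGS, three biological replicates, DESeq2 with apeglm shrinkage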
Reply: -0.0757

Query: Hi! What's the reported shrunken log2 fold change for `RRIRKRPPRLPRPRPRPEKKPRP` on Escherichia coli TOP10?
Reply: -0.018

Query: Query the reported shrunken log2 fold change for Escherichia coli TOP10; item: `RRIRARPPRLPRPRPRPALWPRP`
Reply: 0.833

Query: Field: shrunken log2 fold change (Escherichia coli TOP10). Entry: `RRIRRRPPRLPRPRPRPSHVPRP`
Reply: 0.151
